Values compiled from the supplement of paper PMC11732987.

- Target of assay: USP16 (UniProt Q9Y5T5)
- Sequence (Q9Y5T5 whole entry, looked up, the tested form may be a part): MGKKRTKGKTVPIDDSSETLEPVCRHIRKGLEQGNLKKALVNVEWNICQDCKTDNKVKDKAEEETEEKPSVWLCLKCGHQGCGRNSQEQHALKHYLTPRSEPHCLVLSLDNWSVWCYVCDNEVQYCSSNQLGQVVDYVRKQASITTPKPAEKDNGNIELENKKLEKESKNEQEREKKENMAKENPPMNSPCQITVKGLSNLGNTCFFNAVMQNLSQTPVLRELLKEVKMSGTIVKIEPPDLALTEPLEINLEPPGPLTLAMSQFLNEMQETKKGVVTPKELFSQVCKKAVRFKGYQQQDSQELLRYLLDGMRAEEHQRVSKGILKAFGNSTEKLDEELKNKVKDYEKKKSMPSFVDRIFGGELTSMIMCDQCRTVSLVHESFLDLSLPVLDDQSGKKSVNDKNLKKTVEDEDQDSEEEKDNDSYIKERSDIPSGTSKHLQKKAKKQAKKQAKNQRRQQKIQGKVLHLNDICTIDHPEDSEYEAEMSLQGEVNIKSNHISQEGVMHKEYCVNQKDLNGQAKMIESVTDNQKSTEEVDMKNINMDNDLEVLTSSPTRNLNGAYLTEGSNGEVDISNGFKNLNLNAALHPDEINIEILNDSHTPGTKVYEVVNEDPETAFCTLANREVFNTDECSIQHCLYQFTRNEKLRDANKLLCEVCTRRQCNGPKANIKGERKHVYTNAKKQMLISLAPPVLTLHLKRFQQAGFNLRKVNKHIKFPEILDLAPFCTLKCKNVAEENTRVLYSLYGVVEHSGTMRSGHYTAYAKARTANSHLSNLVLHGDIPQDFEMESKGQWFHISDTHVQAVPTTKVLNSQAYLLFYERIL
- Protocol text: log2 ratio of Biotin-Ahx-Ub-VS probe labelling (fragment/DMSO); higher = less target engagement (more negative = stronger competition), active = hit call of the paper (q ≤ 0.05, log2 ratio ≤ -1)
- Condition context: compound concentration: 200 uM; treatment time: 3 h
Please note: Y applies when log2 ratio of Biotin-Ahx-Ub-VS probe labelling is -0.03 or greater, and N applies otherwise.

CN(C)C(=O)c1ccc(CNC(=O)CCl)cc1    Y
COc1ccccc1C(C)NC(=O)CCl (centres undefined)    N
O=C(CCl)NCCc1ccc(F)cc1    Y
O=C(CCl)NC1CCC(C(F)(F)F)CC1 (centres undefined)    Y
CC1Cc2ccccc2N1C(=O)CCl (centres undefined)    Y
O=C(CCl)Nc1ccc(N2CCCC2=O)cc1    Y
C[C@H]1CN(C(=O)CCl)CCN1C(=O)c1cnn(C)c1.Cl    N
NC(=O)C1CCCCN1C(=O)CCl (centres undefined)    Y
O=C(CCl)N1CCN2C(=O)CCC2C1 (centres undefined)    Y
O=C(CCl)N1CCc2ccccc2C(O)C1 (centres undefined)    Y
Cl.O=C(CCl)N1CCC(n2nc3ccccc3n2)CC1    N
COCC[C@@H](NC(=O)CCl)c1ccccc1    N
O=C(CCl)Nc1nnc(CC(F)(F)F)o1    Y
Cc1ccc(N2CCC(NC(=O)CCl)C2=O)cc1 (centres undefined)    N
Cc1cc(C2CCCN2C(=O)CCl)nn1C.Cl (centres undefined)    N
Cc1c(NC(=O)CCl)c(=O)n(-c2ccccc2)n1C    N
O=C(CCl)N1CCCCCC1c1ncon1 (centres undefined)    N
O=C(CCl)Nc1cc2c(cc1Cl)OCCCO2    N
O=C(CCl)Nc1ccccc1C(F)(F)F    N
O=C(CCl)NC1CCS(=O)(=O)c2ccccc21 (centres undefined)    N
Cc1ccc(N(CCC#N)C(=O)CCl)cc1C    N
Cc1ccc(N(C(=O)CCl)C2C=CS(=O)(=O)C2)cc1 (centres undefined)    Y
Cl.O=C(CCl)N1CCC(Cc2nccs2)C1 (centres undefined)    Y
O=C(CCl)N1CCOCCC1c1ccccc1 (centres undefined)    N
NC(=O)C(Cc1ccccc1)NC(=O)CCl (centres undefined)    Y
CC(NC(=O)CCl)c1noc(Cc2ccccc2)n1 (centres undefined)    N
O=C(CCl)N1CCN(C(=O)Nc2ccccc2)CC1    Y
Cl.Cn1ncc2c1CCCC2NC(=O)CCl (centres undefined)    N

====

- Target of assay: USP38 (UniProt Q8NB14)
- Sequence (whole entry): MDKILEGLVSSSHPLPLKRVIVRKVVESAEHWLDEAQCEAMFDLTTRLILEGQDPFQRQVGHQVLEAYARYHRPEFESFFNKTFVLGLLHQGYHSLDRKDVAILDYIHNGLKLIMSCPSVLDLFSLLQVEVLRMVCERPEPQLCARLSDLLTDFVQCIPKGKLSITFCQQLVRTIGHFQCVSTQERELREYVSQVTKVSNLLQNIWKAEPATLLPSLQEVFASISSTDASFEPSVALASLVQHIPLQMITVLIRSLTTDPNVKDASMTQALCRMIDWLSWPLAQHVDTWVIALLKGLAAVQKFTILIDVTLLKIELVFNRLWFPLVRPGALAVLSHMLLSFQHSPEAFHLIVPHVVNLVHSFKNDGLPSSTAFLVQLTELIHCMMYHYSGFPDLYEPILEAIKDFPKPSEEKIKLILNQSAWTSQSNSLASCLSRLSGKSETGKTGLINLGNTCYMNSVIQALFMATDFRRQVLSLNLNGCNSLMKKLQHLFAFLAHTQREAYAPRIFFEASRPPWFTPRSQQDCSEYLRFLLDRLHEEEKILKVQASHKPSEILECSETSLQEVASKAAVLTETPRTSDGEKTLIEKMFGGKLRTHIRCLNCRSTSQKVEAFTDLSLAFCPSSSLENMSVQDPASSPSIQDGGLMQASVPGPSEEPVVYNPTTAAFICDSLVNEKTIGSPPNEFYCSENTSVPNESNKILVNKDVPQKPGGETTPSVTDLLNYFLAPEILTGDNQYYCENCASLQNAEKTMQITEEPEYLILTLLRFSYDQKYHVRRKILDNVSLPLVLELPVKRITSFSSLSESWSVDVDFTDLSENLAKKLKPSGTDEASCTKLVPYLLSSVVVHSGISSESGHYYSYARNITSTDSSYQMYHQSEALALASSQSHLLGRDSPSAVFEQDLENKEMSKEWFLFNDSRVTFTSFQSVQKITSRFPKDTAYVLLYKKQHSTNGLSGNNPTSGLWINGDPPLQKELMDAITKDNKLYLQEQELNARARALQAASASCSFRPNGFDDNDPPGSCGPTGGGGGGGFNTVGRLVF
- Protocol text: log2 ratio of Biotin-Ahx-Ub-VS probe labelling (compound/DMSO); higher = less target engagement, active = hit call of the paper (q ≤ 0.05, log2 ratio ≤ -1)
- Condition context: compound concentration: 200uM; treatment time: 3 h
Measured log2 ratio of Biotin-Ahx-Ub-VS probe labelling, listed per entry.
Measured property: log2 ratio of Biotin-Ahx-Ub-VS probe labelling

O=C(CCl)N1CCc2cc(Cl)c(Cl)cc2C1    -0.962
O=C(CCl)NC1CCCc2ccccc21 (stereo not drawn)    -0.162
Cc1ccccc1COc1cccc(CN(C)C(=O)CCl)c1    -0.383
COc1cccc(CN(CCCc2ccccc2)C(=O)CCl)c1    -0.679
CCCC1c2cc(OC)c(OC)cc2CCN1C(=O)CCl (stereo not drawn)    -0.48
O=C(CCl)N1Cc2sccc2C(O)C1 (stereo not drawn)    -0.212
Cl.Cl.O=C(CCl)N1CCc2nc(N3CCN(c4ccc(F)cc4)CC3)ncc2C1    -0.918
CCC1c2cc(Cl)c(OC)cc2CCN1C(=O)CCl (stereo not drawn)    -0.934
